- Test system: MV4-11 cells
- ASSAY METHOD TEXT: Cell viability assay (CellTiter-Glo, CTG protocol), MV4-11
- Type: cell-based
- PARTICULARS: Homo sapiens, MV4-11 (MCL-1 dependent AML line), 24 hours incubation, 1% FBS, read-out: Average pCC50 by molecule MV4-11 (converted)
- Experimental: The effect of various compounds of the invention on the viability of MV4-11 and ARH-77 cell lines was investigated, using the CTG protocol described below. […] Cells (MV4-11 or ARH-77) were seeded on […] in a growth medium with 1% FBS. […] After 24 hours of incubation, cell viability was evaluated using CellTiter-Gob® Luminescent Cell Viability Assay (Promega, cat #G7572). The luminescence signal was measured using a CLARIOstar Plus Multi-Mode Microplate Reader (574-590 nm). […]
Attribute: CC50

>  <COMPOUND>
Cc1nn(C)c(C)c1-c1c(Cl)ccc2c(CCCOc3cccc4cc(F)ccc34)c(C(=O)OCOC(=O)C(C)(C)C)n(CCN3CCN(C(=O)COc4cccc5c4CN(C4CCC(=O)NC4=O)C5=O)CC3)c12 (stereo not drawn) [Compound 69]

>  <CC50>
< 10 nM

$$$$
>  <COMPOUND>
Cc1nn(C)c(C)c1-c1c(Cl)ccc2c(CCCOc3cccc4cc(F)ccc34)c(C(=O)OCOC(=O)C(C)(C)C)n(CCN3CCC(CN4CCN(c5ccc6c(c5)CN([C@H]5CCC(=O)NC5=O)C6=O)CC4)CC3)c12 [Compound 71]

>  <CC50>
< 100 nM

$$$$
>  <COMPOUND>
Cc1nn(C)c(C)c1-c1c(Cl)ccc2c(CCCOc3cccc4cc(F)ccc34)c(C(=O)OCCS(C)(=O)=O)n(CCN3CCN(C(=O)COc4cccc5c4CN(C4CCC(=O)NC4=O)C5=O)CC3)c12 (stereo not drawn) [Compound 124]

>  <CC50>
< 1000 nM

$$$$
>  <COMPOUND>
CCOCCOCCOC(=O)OC(C)OC(=O)c1c(CCCOc2cccc3cc(F)ccc23)c2ccc(Cl)c(-c3c(C)nn(C)c3C)c2n1CCN1CCN(C(=O)COc2cccc3c2CN(C2CCC(=O)NC2=O)C3=O)CC1 (stereo not drawn) [Compound 101]

>  <CC50>
< 31.6 nM

$$$$
>  <COMPOUND>
Cc1nn(C)c(C)c1-c1c(Cl)ccc2c(CCCOc3cccc4cc(F)ccc34)c(C(=O)OCOC(=O)C(C)(C)C)n(CCN3CCN(C(=O)Cn4c(C)nc5c(C(=O)NC6CCC(=O)NC6=O)cccc54)CC3)c12 (stereo not drawn) [Compound 70]

>  <CC50>
< 10 nM

$$$$
>  <COMPOUND>
Cc1nn(C)c(C)c1-c1c(Cl)ccc2c(CCCOc3cccc4cc(F)ccc34)c(C(=O)OCOC(=O)C3CCNCC3)n(CCN3CCN(C(=O)COc4cccc5c4CN(C4CCC(=O)NC4=O)C5=O)CC3)c12 (stereo not drawn) [Compound 55]

>  <CC50>
< 100 nM

$$$$
>  <COMPOUND>
Cc1nn(C)c(C)c1-c1c(Cl)ccc2c(CCCOc3cccc4cc(F)ccc34)c(C(=O)OC(C)OC(=O)OC3CCCCC3)n(CCN3CCN(C(=O)COc4cccc5c4CN(C4CCC(=O)NC4=O)C5=O)CC3)c12 (stereo not drawn) [Compound 100]

>  <CC50>
< 31.6 nM

$$$$
>  <COMPOUND>
Cc1nn(C)c(C)c1-c1c(Cl)ccc2c(CCCOc3cccc4cc(F)ccc34)c(C(=O)OCOC(=O)C(C)(C)C)n(CCN3CCN(C(=O)COc4cccc5c4n(C)c(=O)n5C4CCC(=O)NC4=O)CC3)c12 (stereo not drawn) [Compound 73]

>  <CC50>
< 3.16 nM

$$$$
>  <COMPOUND>
Cc1nn(C)c(C)c1-c1c(Cl)ccc2c(CCCOc3cccc4cc(F)ccc34)c(C(=O)OCOC(=O)C(C)(C)C)n(CCN3CCN(C(=O)COc4ccc5c(c4)n(C)c(=O)n5C4CCC(=O)NC4=O)CC3)c12 (stereo not drawn) [Compound 74]

>  <CC50>
< 3.16 nM

$$$$
